Reported pKi is given for each of the following compounds.
Target: Sporosarcina pasteurii urease (Sporosarcina pasteurii, UniProt P41020)
Sequence (P41020 whole entry, looked up): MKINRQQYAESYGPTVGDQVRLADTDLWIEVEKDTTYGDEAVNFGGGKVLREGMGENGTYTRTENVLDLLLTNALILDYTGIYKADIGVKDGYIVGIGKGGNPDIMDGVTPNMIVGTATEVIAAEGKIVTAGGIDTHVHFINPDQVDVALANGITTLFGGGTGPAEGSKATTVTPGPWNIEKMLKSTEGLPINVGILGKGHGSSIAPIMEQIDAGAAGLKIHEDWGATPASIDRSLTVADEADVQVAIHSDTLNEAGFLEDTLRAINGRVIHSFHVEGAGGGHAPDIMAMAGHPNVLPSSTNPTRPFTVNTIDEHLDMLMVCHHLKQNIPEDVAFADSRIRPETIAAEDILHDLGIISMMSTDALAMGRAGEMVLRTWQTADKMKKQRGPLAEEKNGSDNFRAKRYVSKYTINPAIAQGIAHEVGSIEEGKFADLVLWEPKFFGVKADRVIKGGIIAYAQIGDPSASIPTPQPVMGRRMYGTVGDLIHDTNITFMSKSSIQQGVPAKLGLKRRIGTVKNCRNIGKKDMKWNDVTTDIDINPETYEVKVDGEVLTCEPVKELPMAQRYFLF
Assay: Inhibition of purified S. pasteurii urease (Ki; phenol-hypochlorite/Berthelot ammonia assay)
Assay type: biochemical
Procedure: The values of kinetic parameters ( and KM vmax) of the purified enzyme were determined by fitting the initial reaction velocities measured in a range of urea concentrations to the Michaelis-Menten equation by nonlinear regression. The values […] The values were calculated using the appropriate equations in Ki the GraphPad Prism 5 software. […] Urease activity was determined using the […] run in triplicate for the compounds analyzed.
pKi: −log10 of the molar value.
Property Name: pKi

>>> assay_result("Cc1cc(-n2[se]c3ccccc3c2=O)ccc1Cl")
8.61
>>> assay_result("CCCCOc1ccc(-n2[se]c3ccccc3c2=O)cc1")
8.75
>>> assay_result("O=c1c2ccccc2[se]n1-c1ccc(F)cc1")
7.62
>>> assay_result("Cc1ccc(-n2[se]c3ccccc3c2=O)c(Cl)c1")
8.49
>>> assay_result("Cc1ccc(Cl)c(-n2[se]c3ccccc3c2=O)c1")
8.79

###

Target: Sporosarcina pasteurii urease (Sporosarcina pasteurii)
Property Name: Ki (nM)

>>> assay_result("COc1ccccc1-n1[se]c2ccccc2c1=O")
5.36
>>> assay_result("O=c1c2ccccc2[se]n1-c1ccccc1Cl")
13.7
>>> assay_result("COc1ccc(Cl)cc1-n1[se]c2ccccc2c1=O")
1.63
>>> assay_result("O=c1c2ccccc2[se]n1-c1ccccc1F")
0.974
>>> assay_result("O=c1c2ccccc2[se]n1-c1ccc(C(F)(F)F)cc1")
0.0363
>>> assay_result("O=c1c2ccccc2[se]n1-c1ccccc1Br")
6.79
>>> assay_result("O=c1c2ccccc2[se]n1-c1ccc(F)cc1F")
0.0167
>>> assay_result("O=c1c2ccccc2[se]n1-c1ccccc1O")
1.42
>>> assay_result("Cc1ccc(Cl)cc1-n1[se]c2ccccc2c1=O")
75.2
>>> assay_result("Cc1ccccc1-n1[se]c2ccccc2c1=O")
3.56
>>> assay_result("COc1ccc(-n2[se]c3ccccc3c2=O)cc1")
44
